Experiment: protein stability index of a GFP-peptide fusion (yeast GPS) (PSI 1-4); higher = more stable; sorted into four equal gates, so the index is relative within each strain
Settings: doa10∆
quantityName: protein stability index

For EQEIENNGLPMKNKAET [ITC1] the sequence record lists protein stability index as 2.81

Recorded result, FEFGNMKATSNTLEEFE [FAS2] , protein stability index: 3.18

# protein stability index (sequence: HPKIVKKHTKKFKRHHS [RPL32] ) is 2.74

Form: sequence = DCNSALDQLLVLEKKTR [RPN5] ; protein stability index = 2.31

So, WGVNLPAHTVIIKGTDV [BRR2] ? Its protein stability index was 2.82

Notebook: SLDIRHDFIKGLIMLNL [NUT1] , protein stability index read as 2.18

Form field protein stability index, entry PKDPSNVETYEQILQWV [BRR2] : 2.77

Record QMMARMAQTATQQQPGA [SRP54] , field protein stability index: 2.34

Entry ESSSEDDYEDQDDDDYV [IRR1] , protein stability index reported as 3.58

The recorded protein stability index for entry AEFILKNRSTIFWGIRL [BRR2] equals 2.73

====

Exercise: for every item that follows, state its recorded protein stability index.
Assay: protein stability index of a GFP-peptide fusion (yeast GPS) (PSI 1-4); higher = more stable; sorted into four equal gates, so the index is relative within each strain
Conditions: doa10∆
Form field (numeric): enter value without unit.

Entry NSMEYTGKITKMFQDIR [CDC53] , protein stability index reported as 3.06

Reported protein stability index of AYLLLVQGGNAAPSAAD [RPP2B] : 1.84

Consider HTTQIVNLEDNTQDLLL [YML103C/NUP188] . Its measured protein stability index is 3.21

Record IQSQVFESLYNSNDSVF [BRR2] , field protein stability index: 2.04

Short answer for NLQTFTHEQWSNIQRNV [SRP72] : protein stability index was 2.86

protein stability index reading for LFGMCESLYEPNLEPED [PUP3] : 2.77

According to the records, this sequence KLNDSQRKTVNSDDILS [POP1] displays protein stability index of 2.3

The reported protein stability index of the sequence VSNPLIQRFFALHYLVP [COB] was 1.86

====

Assay: protein stability index of a GFP-peptide fusion (yeast GPS) (PSI 1-4); higher = more stable; sorted into four equal gates, so the index is relative within each strain
Conditions: ubr1∆
So I've got a bunch of sequences here, and I need their protein stability index values.
Write the number on its own, no unit after it.

protein stability index recorded for this sequence, IASTEKPENKTDKVSLS [SIR4] , is 2.89

For record QGKSKLIIIAANTPVLR [RPL30] the listed protein stability index is 2.99

# protein stability index (sequence: TKLDQVWGSETVASSKV [RPL4A] ) is 2.98

Per the records, this sequence ( PGPLPDTDSKPSSQSQN [YLR018C/POM34] ) has protein stability index equal to 2.98

Reported protein stability index ( DDSANIVNVNFMKSVIR [DIS3] ) = 3.03

What the record says about SKTVKVLKTLIEKFEQV [RPN6] : protein stability index is 2.83

Sample LWDVATGETYQRFVGHK [ASC1] ; protein stability index observed: 3.4

Entry YYGLVIDLLLLGQERAT [PRP8] , protein stability index reported as 1.38

====

Assay: protein stability index of a GFP-peptide fusion (yeast GPS) (PSI 1-4); higher = more stable; sorted into four equal gates, so the index is relative within each strain
Conditions: doa10∆
If the reported protein stability index equals or exceeds 3, assign y. If not, assign n.

Determine whether measured protein stability index meets or exceeds 3 for LNSFAFELCSLGDKELW [YJR042W/NUP85]
n

Does the reported protein stability index for EEATTEEAGEEEAKEEV [RPS0A] fall at or above the 3 mark?
n

Evaluate TSANGIVQFTYGGDGLD [RPO31] : protein stability index at minimum 3?
n

// inclusive: protein stability index at least 3? input: SASDALKGRVVEVCLAD [RPS1A]
n

I'd appreciate it if you could say whether SAGQPNLLLSASRDKTL [ASC1] has protein stability index at least equal to 3.
n

Does KSHKQTIVTGGGSGNGD [RPP1] have a reported protein stability index of at least 3?
y

Is reported protein stability index greater than or equal to 3 here: IIASASYDKTVKLWEED [YGL100W/SEH1]
y

Entry KTQFSWQYYYYTLTEEG [RPS10A] : is its protein stability index no less than 3?
n

Say whether DTVSWFKQKYDADVLDK [RPL11A] shows protein stability index of 3 or more.
n

Assess whether reported protein stability index for FLVRYACEPTAEKFVPI [SIR3] sits at 3 or higher.
n

Check if protein stability index >= 3 (inclusive). Item: RMYEEASGKEVEKVATA [RPN2]
n

Test whether the sequence ERVMKNKVEENLEGLYL [RPT2] records protein stability index of 3 or higher.
y

Test whether the sequence ARGMTSKPAGFMKKLRA [RPS15] records protein stability index of 3 or higher.
y

Exam item: decide whether the reported protein stability index for ANKEKRAIILERNAAYQ [RPL7A] is at least 3.
n

Is protein stability index at least 3? Consider SAKPSQIPTVSSPLGFE [SIR4]
y

Decide: is the reported value of protein stability index for MQLEEELMKLDGTEYVL [MED6] equal to or greater than 3?
y

Answer whether protein stability index of SVFNAELLKLLNDEYNY [YCS4] is greater than or equal to 3.
n

Entry DVTAIQTWSYLSLYSTD [ECM29] : is its protein stability index no less than 3?
n

Say whether SSLASQDVDFYKNLDRG [RRP6] shows protein stability index of 3 or more.
n

Decide: protein stability index of TAEDSWAVISAFFREKG [RPB2] >= 3?
y

Is protein stability index at least 3? Consider IRKIVRKDENQFSYVDS [AAR2]
y

Please tell me: is the sequence HASENISLSFSRPASYG [SIR4] at or over 3 in terms of protein stability index?
n

====

Test: protein stability index of a GFP-peptide fusion (yeast GPS) (PSI 1-4); higher = more stable; sorted into four equal gates, so the index is relative within each strain
Conditions: doa10∆
quantityName: protein stability index
Enter a number only.

The value of protein stability index measured for the sequence AESMCQELELPGEFVTA [SNF5] turned out to be 2.4

Entry SVDITGGPWFTDGELDI [RPC34] ; protein stability index = 3.04

For reference, reported protein stability index for LHNLNEYQIVYYNPQAG [RGR1] stands at 1.41

// recorded protein stability index for DDDDDDDDEVDYSEIQR [DSN1] : 2.98

====

Assay: protein stability index of a GFP-peptide fusion (yeast GPS) (PSI 1-4); higher = more stable; sorted into four equal gates, so the index is relative within each strain
Settings: ubr1∆
quantityName: protein stability index

Lab note: measured protein stability index of LNTLLVTSADSNLKISL [SWI1] was 2.52

Lab note: RRERRLIFGTIASKMSL [RPT3] gave protein stability index of 2.45

response.value for ELMAMNITPRLYTDRSR [RPB2] (field: protein stability index) = 1.96

For this sequence ( SNGGNNMLPQRQSSVGS [SNF2] ), measured protein stability index is 2.55

// recorded protein stability index for SVLYPDELEDDTLNETN [RRP43] : 3.11

Data point: PLSQDELISLRKILESS [YIL149C/MLP2] ; protein stability index = 2.32

Record summary for DKFSPEDGLGPLMAKSV [ARP7] : reported protein stability index = 3.39

====

Experiment: protein stability index of a GFP-peptide fusion (yeast GPS) (PSI 1-4); higher = more stable; sorted into four equal gates, so the index is relative within each strain
Details: ubr1∆
Response key: True means protein stability index >= 3; False means protein stability index < 3.

Form field: protein stability index at least 3? Entry: GVERLIPVGDNTVVGIS [PRE4]
False

Could you please find out whether EGKKVMAPYLPGSRASS [RPN2] has protein stability index that meets 3 or exceeds it?
False

Check if protein stability index >= 3 (inclusive). Item: GRIRTTREDVSPHYNSQ [SSN3]
False

Quick check: does APRQEISEEETTVKPLF [YAR002W/NUP60] have protein stability index greater than or equal to 3?
True

Item CRRMILTHVDLIEKFLR [RPB10] with protein stability index of 3 or above?
False

Check the entry LEASYSKSYTPRKLVLS [SMC4] : does protein stability index equal or exceed 3?
False

Identify whether the reported protein stability index of the following sequence is 3 or greater: GELVLDIEVPDVNALKF [SNF12]
True

Please indicate if the recorded protein stability index for DVNLDVRIHSIQVLTEA [IRR1] meets or exceeds 3.
False

====

Assay: protein stability index of a GFP-peptide fusion (yeast GPS) (PSI 1-4); higher = more stable; sorted into four equal gates, so the index is relative within each strain
Details: san1∆
quantityName: protein stability index
# respond with the number and nothing more

sequence HGKASRQQYYSGVQVGG [SNF6] , protein stability index observed: 2.61

Just so you know, measured protein stability index for TNIRRIIQDNISPRLVV [RRP46] came out at 1.75

Lab note: QLSKAAKAAAALAGGKK [RPS25A] gave protein stability index of 1.82

Reported protein stability index for DVECIKAKSHFTNIISR [YJL039C/NUP192] was 2.73

// field: protein stability index; key: VLESIVARTFWASKYGQ [BRR2] ; value = 2.47

Lab note: EDGTSASFQIVEEDHTL [RPC19] gave protein stability index of 3.4

protein stability index measured on LSEEKEVIFTDVLKSQA [MCD1] = 3.13

Documented protein stability index of IYDKKDHKYVCTFSMEP [SRB8] : 2.78

The measured protein stability index associated with PQQNKTPFSFGTANNNS [YJL041W/NSP1] reads 3.12

For this sequence ( HTTQIVNLEDNTQDLLL [YML103C/NUP188] ), measured protein stability index is 3.27

Item: DNMITGVTKGYKYKMRY [RPL9A] | protein stability index: 2.92

Quick note, protein stability index for KRLNGKRKYLDIPIDEM [SSN2] landed at 3.23

Per the record, NNYDDFMLSDDEGMESI [RRI2] has protein stability index of 3.37

// protein stability index value for VKVLAATNRVDVLDPAL [RPT5] : 3.02

Lab note: ALFVFYSPNTLGHPDNY [COB] gave protein stability index of 2.06

Looking up MNAGGLFGAKPQNTTAT [YGR119C/NUP57] , I found its protein stability index recorded as 3.35

The sequence listed as SHLFNEYSYVDSNMDSI [RPN4] shows protein stability index equal to 2.93

protein stability index reported for this sequence PGHEMEDFLDKSYYLNT [AAR2] : 2.81

What the record says about PGQKMSLFSHRKHTRGD [BRN1] : protein stability index is 3.31

protein stability index measured on ARLAILKERAKNISSQL [YGR119C/NUP57] = 2.51

Sure, the documented protein stability index for KKSKRLDKVGKKKGGKK [LRP1] is 2.99

So for PTETYSDVGGLDKQIEE [RPT5] , the logged protein stability index turned out to be 3.12

get_value(item= LKNTMQYLTNFSRFRDQ [RPB4] , readout=protein stability index) returns 3.1

The recorded protein stability index for MKESVVEINSSESDLDE [ESC2] is 3.06

Sample LNVQVWHIEETGEWFSS [ITC1] ; protein stability index observed: 2.39

Quick note, protein stability index for IEILVKDNECSSFEENN [RRI2] landed at 2.89

Lab note: measured protein stability index of QEAFKIYQHLASHNEKD [SRP72] was 2.93

Notebook: STGLKNASDALKGRVVE [RPS1B] , protein stability index read as 2.91

Entry STLLCTDLESKSRMINF [SNU114] ; protein stability index = 2.67

sequence LASIPDIFITPTPVVTI [SSN2] , protein stability index observed: 1.45

Documented protein stability index of PSAVAGFINQKNLKPQE [YIL149C/MLP2] : 2.98

# protein stability index of KEASQEDDNNNVEKPSS [YLR335W/NUP2] = 3.06

What the record says about FLHESSFDSIDHSWFLL [CSI1] : protein stability index is 2.48

Sample FTIRGFKQKLNELLKCK [MTW1] ; protein stability index observed: 2.93

Just so you know, measured protein stability index for YNEFLYSKAGREELERV [QCR8] came out at 3.35

protein stability index in this record for TKSKEQLASQLVDLKKE [RPL35A] : 3.12

# protein stability index (sequence: PITGASLDLIKERRSLK [RPL24A] ) is 3.02

What the record says about EQKNTAKEELNGLKDQL [YIL149C/MLP2] : protein stability index is 3.12

Recorded result, QVVGPFHTSFSAVVGPN [SMC4] , protein stability index: 2.78

The sequence IKDSVREVGTKFTTVLA [ECM29] showed protein stability index equal to 2.22

Recorded result, TSAVELGAIEQILIFAA [YJL039C/NUP192] , protein stability index: 1.77

Reported protein stability index ( RNSPFWWTNSHHDGKLW [PRP8] ) = 2.68

Given item NQNFSLTFQPQQQTNAL [GRR1] , the value recorded as its protein stability index is 3.02

Entry LKGIQEFGADWYKVAKN [SWI3] — recorded protein stability index = 3.37

// field: protein stability index; key: VVDRESDIPKTTVQVAE [PRE4] ; value = 2.8

The reported value for IRAHQTELTHHLLPRNE [QCR7] in terms of protein stability index is 3.02

Item: LNEKFQELRKKVNPNIM [SMC2] | protein stability index: 2.98

Item: FEAAVKMSDGFNGADIR [RPT4] | protein stability index: 3.34

Input TMLELLNQLDGFETSKN [RPT6] . Output protein stability index: 2.63

For record KFNELVKLMKNITDYET [BRR2] the listed protein stability index is 1.21

Record EEGRAIPGEYITYALSG [RPS21B] , field protein stability index: 2.88

sequence ISSRTYGQRAVLKFAAH [RPS0B] , protein stability index observed: 2.26

Cited source for all entries: the supplement of paper PMC9732359
